# melting point per entry

{"compound": "Cc1ccc(Cn2ncc3c(C(=O)O)cc(C)nc32)cc1", "melting point": "190 to 192 °C"}
{"compound": "O=c1[nH]nnn1-c1cccs1", "melting point": "151 to 153 °C"}
{"compound": "CCc1c(C(=O)CCl)[nH]c(C)c1C(C)=O", "melting point": "143 to 145 °C"}
{"compound": "N#CSc1ccc(N)cc1", "melting point": "43 to 56 °C"}
{"compound": "O=C(O)c1cnc(-c2ncccn2)s1", "melting point": "217 to 219 °C"}

Task item: Data request, read-out melting point, for `Cc1ccnc2[nH]c(CCl)nc12`
Reply: 274 to 276 °C

Task item: Another compound to look at: `O=C(Cc1cccc2ccccc12)NO`
Reply: 179 to 181 °C
